# Tested on: S. pneumoniae D39V;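 further: first quartile when negative (synergy) and third quartile when positive (antagonism)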
# measurement notes: Bliss interaction score (quartile over a dose matrix) (fitness difference); higher = more antagonism (negative = synergy)
Reported Bliss interaction score is given for each of the following compounds.
measurement type: Bliss interaction score

COc1cccc2c1C(=O)c1c(O)c3c(c(O)c1C2=O)C[C@@](O)(C(=O)CO)C[C@@H]3O[C@H]1C[C@H](N)[C@H](O)[C@H](C)O1 [Doxorubicin] + O=C1CN(/N=C/c2ccc([N+](=O)[O-])o2)C(=O)N1 [Nitrofurantoin]: 0.0747
O=C(O)c1cn(C2CC2)c2cc(N3CCNCC3)c(F)cc2c1=O [Ciprofloxacin] + CC(=O)NC[C@H]1CN(c2ccc(N3CCOCC3)c(F)c2)C(=O)O1 [Linezolid]: 0.0563
C[C@H]1c2cccc(O)c2C(=O)C2=C(O)[C@]3(O)C(=O)C(C(N)=O)=C(O)[C@@H](N(C)C)[C@@H]3[C@@H](O)[C@@H]21 [Doxycycline] + C[C@@H]1O[C@@H]1P(=O)(O)O [Fosfomycin]: -0.096
CO/N=C(\C(=O)N[C@@H]1C(=O)N2C(C(=O)O)=C(COC(C)=O)CS[C@H]12)c1csc(N)n1 [Cefotaxime] + O=C1CN(/N=C/c2ccc([N+](=O)[O-])o2)C(=O)N1 [Nitrofurantoin]: 0.142
CC(=O)Oc1ccccc1C(=O)O [Acetylsalicylicacid] + C/C(=C\C(=O)OCCCCCCCCC(=O)O)C[C@@H]1OC[C@H](C[C@@H]2O[C@H]2[C@@H](C)[C@H](C)O)[C@@H](O)[C@H]1O [Pseudomonic acid]: -0.0974

----------
# Test system: B. subtilis 168;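 further: OD595 on entry to stationary phase over no-drug wells; at most 1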
# measurement notes: fitness (endpoint OD595 vs no drug) (fraction); higher = more growth
# applied conditions: first compound 0.25 µg/mL; partner 0.125 µg/mL; one replicate
Each entry below lists one item and its recorded fitness value.
measurement type: fitness

CN(C)c1cc(NC(=O)CNC(C)(C)C)c(O)c2c1C[C@H]1C[C@H]3[C@H](N(C)C)C(O)=C(C(N)=O)C(=O)[C@@]3(O)C(O)=C1C2=O [Tigecycline] + COc1cc(Cc2cnc(N)nc2N)cc(OC)c1OC: 0.798
CO/N=C(\C(=O)N[C@@H]1C(=O)N2C(C(=O)O)=C(COC(C)=O)CS[C@H]12)c1csc(N)n1 [Cefotaxime] + CN(C)c1cc(NC(=O)CNC(C)(C)C)c(O)c2c1C[C@H]1C[C@H]3[C@H](N(C)C)C(O)=C(C(N)=O)C(=O)[C@@]3(O)C(O)=C1C2=O [Tigecycline]: 0.307
CO/N=C(\C(=O)N[C@@H]1C(=O)N2C(C(=O)O)=C(COC(C)=O)CS[C@H]12)c1csc(N)n1 [Cefotaxime] + CC(=O)NC[C@H]1CN(c2ccc(N3CCOCC3)c(F)c2)C(=O)O1 [Linezolid]: 0.189
CO/N=C(\C(=O)N[C@@H]1C(=O)N2C(C(=O)O)=C(COC(C)=O)CS[C@H]12)c1csc(N)n1 [Cefotaxime] + N[C@@H]1CONC1=O [Cycloserine D]: 0.296

----------
# Test system: S. pneumoniae D39V;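 further: first quartile when negative (synergy) and third quartile when positive (antagonism)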
# measurement notes: Bliss interaction score (quartile over a dose matrix) (fitness difference); higher = more antagonism (negative = synergy)
measurement type: Bliss interaction score

CO/N=C(\C(=O)N[C@@H]1C(=O)N2C(C(=O)O)=C(COC(C)=O)CS[C@H]12)c1csc(N)n1 [Cefotaxime] + COc1c(N2C[C@@H]3CCCN[C@@H]3C2)c(F)cc2c(=O)c(C(=O)O)cn(C3CC3)c12 [Moxifloxacin]: -0.0434
O=C(O)c1cn(C2CC2)c2cc(N3CCNCC3)c(F)cc2c1=O [Ciprofloxacin] + CN[C@H](CC(C)C)C(=O)N[C@H]1C(=O)N[C@@H](CC(N)=O)C(=O)N[C@H]2C(=O)N[C@H]3C(=O)N[C@H](C(=O)N[C@H](C(=O)O)c4cc(O)cc(O)c4-c4cc3ccc4O)[C@H](O)c3ccc(c(Cl)c3)Oc3cc2cc(c3O[C@@H]2O[C@H](CO)[C@@H](O)[C@H](O)[C@H]2O[C@H]2C[C@](C)(N)[C@H](O)[C@H](C)O2)Oc2ccc(cc2Cl)[C@H]1O [Vancomycin]: -0.106
Cc1ncc([N+](=O)[O-])n1CCO [Metronidazole] + CO[C@@]12[C@H](COC(N)=O)C3=C(C(=O)C(C)=C(N)C3=O)N1C[C@@H]1N[C@@H]12 [MitomycinC]: 0.0827
